Target: T1, recombinant Human/Cynomolgus CD28 (N-6His) (Human/Cynomolgus, UniProt P10747 19-152)
T1 construct: Bought protein; also called antigen CD28; not shown: 6His tag at the N-terminus (N-6His)
Assay: ELISA; plate coated with CD28 (N-6His) 2 µg/mL; HRP-anti-hFc
quantity-name: EC50
Could you give the number and then its unit, please?

INSERT INTO measurements (binder, quantity_name, endpoint_value) VALUES
  ('huVH3huVL2 (antibody, human IgG1, kappa, V domains shown) VH: QVQLQESGPGLVKPSETLSLTCTVSGFSLSDYGVHWVRQSPGKGLEWIGVIWAGGGTNYNSALKSRKTISKDNSKSQVSLKLSSVTAADTAVYYCARDKGYSYYYSMDYWGQGTTVTVSS VL: DIQLTQSPSSLSASVGDRVTITCRASESVEYYVTSLMQWYQQKPGKAPKLLIFAASNVESGVPSRFSGSGSGTNFTLTISSVQPEDFATYFCQQSRKVPYTFGGGTKLEIKR', 'EC50', '0.00914 µg/mL'),
  ('huVH4huVL2 (antibody, human IgG1, kappa, V domains shown) VH: QVQLQESGPGLVKPSETLSLTCTVSGFSLSDYGVHWIRQPPGKGLEWIGVIWAGGGTNYNSALKSRVTISVDTSKNQVSLKLSSVTAADTAVYYCARDKGYSYYYSMDYWGQGTTVTVSS VL: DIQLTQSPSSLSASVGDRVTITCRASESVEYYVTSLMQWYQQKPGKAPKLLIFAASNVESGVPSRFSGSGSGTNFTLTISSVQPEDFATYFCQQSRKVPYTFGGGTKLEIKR', 'EC50', '0.0126 µg/mL'),
  ('huVH1huVL1 (antibody, human IgG1, kappa, V domains shown, also called huVH1VL1; 9.3h11) VH: QVKLQESGPGLVKPSETLSITCTVSGFSLSDYGVHWVRQSPGKGLEWLGVIWAGGGTNYNSALMSRKTISKDNSKSQVFLKMSSLTAADTAVYYCARDKGYSYYYSMDYWGQGTTVTVSS VL: DIQLTQSPSSLSVSVGDRVTISCRASESVEYYVTSLMQWYQQKPGQAPKLLIFAASNVESGVPSRFSGSGSGTNFTLTISSVQEEDFAMYFCQQSRKVPYTFGGGTKLEIKR', 'EC50', '0.0151 µg/mL'),
  ('huVH5huVL2 (antibody, human IgG1, kappa, V domains shown) VH: QVQLQESGPGLVKPSETLSLTCTVSGFSISDYGVHWIRQPPGKGLEWIGVIWAGGGTNYNPSLKSRVTISVDTSKNQVSLKLSSVTAADTAVYYCARDKGYSYYYSMDYWGQGTTVTVSS VL: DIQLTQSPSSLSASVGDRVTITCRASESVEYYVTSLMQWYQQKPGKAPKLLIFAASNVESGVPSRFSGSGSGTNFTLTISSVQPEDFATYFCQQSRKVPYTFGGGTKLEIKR', 'EC50', '0.0151 µg/mL');

Req: Fill blank: measured EC50 of the binder huVH2huVL3 (antibody, human IgG1, kappa, V domains shown) VH: QVQLQESGPGLVKPSETLSITCTVSGFSLSDYGVHWVRQPPGKGLEWLGVIWAGGGTNYNSALMSRKTISKDTSKNQVSLKMSSLTAADTAVYYCARDKGYSYYYSMDYWGQGTTVTVSS VL: DIQLTQSPSSLSASVGDRVTITCRASESVEYYVTSLMQWYQQKPGKAPKLLIFAASNVESGVPSRFSGSGSGTDFTLTISSLQPEDFATYYCQQSRKVPYTFGGGTKLEIKR is ____.
Resp: 0.0104 µg/mL
